Target: Lysine-specific demethylase 4A (Homo sapiens) (UniProt O75164)
Sequence (O75164 whole entry, looked up, the tested form may be a part): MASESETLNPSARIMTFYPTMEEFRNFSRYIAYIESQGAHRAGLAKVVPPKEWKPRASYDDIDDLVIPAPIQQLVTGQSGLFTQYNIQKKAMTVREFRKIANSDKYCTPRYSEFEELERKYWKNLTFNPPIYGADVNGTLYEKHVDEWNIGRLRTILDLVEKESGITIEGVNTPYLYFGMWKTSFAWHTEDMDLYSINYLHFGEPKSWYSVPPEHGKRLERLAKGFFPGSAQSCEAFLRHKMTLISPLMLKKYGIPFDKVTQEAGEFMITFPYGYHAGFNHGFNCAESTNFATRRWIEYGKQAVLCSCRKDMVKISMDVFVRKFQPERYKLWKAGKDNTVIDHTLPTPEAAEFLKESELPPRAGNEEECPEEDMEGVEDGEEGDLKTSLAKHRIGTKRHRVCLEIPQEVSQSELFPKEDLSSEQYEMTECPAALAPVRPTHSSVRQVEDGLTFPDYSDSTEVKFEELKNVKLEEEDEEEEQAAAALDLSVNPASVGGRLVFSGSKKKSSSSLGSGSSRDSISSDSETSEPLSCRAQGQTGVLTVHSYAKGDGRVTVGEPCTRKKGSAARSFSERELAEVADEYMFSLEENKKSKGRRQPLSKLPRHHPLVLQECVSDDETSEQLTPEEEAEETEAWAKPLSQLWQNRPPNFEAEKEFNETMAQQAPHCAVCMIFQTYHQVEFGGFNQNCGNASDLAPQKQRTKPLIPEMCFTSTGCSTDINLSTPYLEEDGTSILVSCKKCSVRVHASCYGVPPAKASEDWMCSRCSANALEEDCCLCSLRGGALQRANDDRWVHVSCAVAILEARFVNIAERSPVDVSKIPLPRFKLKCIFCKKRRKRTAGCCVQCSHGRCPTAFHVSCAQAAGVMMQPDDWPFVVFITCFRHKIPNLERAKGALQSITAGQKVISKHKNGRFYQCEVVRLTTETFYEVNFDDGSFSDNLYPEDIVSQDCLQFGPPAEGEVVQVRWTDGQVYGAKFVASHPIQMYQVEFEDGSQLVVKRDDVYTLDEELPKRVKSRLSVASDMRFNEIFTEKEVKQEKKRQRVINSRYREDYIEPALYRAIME
Test: qHTS Assay for Inhibitors of JMJD2A-Tudor Domain; further: nearly all actives have a fitted effect of over 50% in size
Details: AlphaScreen JMJD2A-Tudor / H3K4me3 peptide binding; series mostly up to 114 µM
The campaign covered roughly 390,000 compounds. About 17,000 (4.4%) were called active. Not shown: some 8% with an inconclusive outcome. The call rests on the fitted dose curve; in most records, active means well fitted inhibition curve with a large enough effect; inconclusive means small, poorly fitted or top-dose-only effect; inactive means no such curve, though single readings can be large or run the other way. What follows is part of a selection rich in actives, with near analogues and random picks from the rest.
Give your call using only these classes: class 1 (active), class 0 (inactive)

Solved cases (2 shown):
[[record]]
molecule = "CSc1nc(C)cc(SC(C(C)=O)C(=O)Nc2ccccc2)n1 (centres undefined)"
qualitativelabel = "class 1"

[[record]]
molecule = "CCOc1ccc(N(CC)S(=O)(=O)N2CCCC(C(=O)NCc3ccc(SC)cc3)C2)cc1 (centres undefined)"
qualitativelabel = "class 0"


Query: Hi, sorry to bother you, what did the test record for CCC(C)Nc1oc(-c2ccc(COc3ccc(Cl)cc3)o2)nc1C#N (centres undefined) ?
Response: class 0

Query: Hi, sorry to bother you, what did the test record for C=CCn1c(COc2cccc3cccnc23)nnc1SCC(=O)OC ?
Response: class 0
